MEASURED TARGET: mGlyT-1b (Mus musculus)
Construct: host or cells: Flp-in CHO cells, stably transfected
Sequence (P28571 1-651 isoform P28571-2): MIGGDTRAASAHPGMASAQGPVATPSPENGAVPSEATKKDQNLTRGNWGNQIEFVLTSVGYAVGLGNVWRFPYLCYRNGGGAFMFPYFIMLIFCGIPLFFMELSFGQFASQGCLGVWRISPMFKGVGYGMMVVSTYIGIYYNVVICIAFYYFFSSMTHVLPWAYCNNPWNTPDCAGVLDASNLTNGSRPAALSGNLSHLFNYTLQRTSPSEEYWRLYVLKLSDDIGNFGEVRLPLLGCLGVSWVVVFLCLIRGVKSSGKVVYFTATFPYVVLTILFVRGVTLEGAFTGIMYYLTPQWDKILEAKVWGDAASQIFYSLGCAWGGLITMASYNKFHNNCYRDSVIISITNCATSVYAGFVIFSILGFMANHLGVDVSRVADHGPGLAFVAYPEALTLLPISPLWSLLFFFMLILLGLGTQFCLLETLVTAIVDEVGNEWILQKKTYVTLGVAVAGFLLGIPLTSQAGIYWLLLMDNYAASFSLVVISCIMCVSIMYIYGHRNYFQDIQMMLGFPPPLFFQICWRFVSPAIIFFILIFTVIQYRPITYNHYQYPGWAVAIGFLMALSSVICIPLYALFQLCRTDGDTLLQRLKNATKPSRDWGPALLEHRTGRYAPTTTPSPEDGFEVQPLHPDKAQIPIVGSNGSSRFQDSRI
ASSAY PROTOCOL: Glycine uptake inhibition assay (mGlyT-1b)
Type: cell-based
CONDITION PARAMETERS: inhibition of [3H]-glycine uptake in Flp-in-CHO cells stably transfected with mGlyT1b cDNA; 20 min at 22° C.
EXPERIMENTAL READOUT: IC50 (µM)

// worked examples, IC50 included
>>> measured_value("CC(=O)c1ccc(N2CCN(C(=O)c3cc([N+](=O)[O-])ccc3NC(C)C)CC2)c(F)c1")
0.0025
>>> measured_value("CC(=O)c1ccc(N2CCN(C(=O)c3cc(S(C)(=O)=O)ccc3N3CCCC3)CC2)c(F)c1")
0.019
>>> measured_value("CS(=O)(=O)c1ccc(N2CCCCC2)c(C(=O)N2CCN(c3ccc(C(F)(F)F)cc3F)CC2)c1")
0.017
>>> measured_value("CC(=O)c1ccc(N2CCN(C(=O)c3cc([N+](=O)[O-])ccc3NC(C)(C)C)CC2)c(F)c1")
0.02
>>> measured_value("CC(=O)c1ccc(N2CCN(C(=O)c3cc([N+](=O)[O-])ccc3N3CCC(CO)C3)CC2)c(F)c1 (racemic)")
0.0097

[P] CNS(=O)(=O)c1ccc(N2CCCCC2)c(C(=O)N2CCN(c3ccc(C#N)cc3)CC2)c1
[Q] CNS(=O)(=O)c1ccc(N2CCCCC2)c(C(=O)N2CCN(c3ccc(C(C)=O)cc3F)CC2)c1
[R] CC(=O)c1ccc(N2CCN(C(=O)c3cc([N+](=O)[O-])ccc3N3CCCCCC3)CC2)c(F)c1
[S] CC(=O)c1ccc(N2CCN(C(=O)c3cc([N+](=O)[O-])ccc3N3CCCCC3)CC2)c(F)c1
Problem: Reorder the items by IC50, least to greatest. A complete answer lists every label in the requested sequence.
Solution: S, R, P, Q
